# study_target: JAK2 (Homo sapiens)
# Sequence (O60674 whole entry): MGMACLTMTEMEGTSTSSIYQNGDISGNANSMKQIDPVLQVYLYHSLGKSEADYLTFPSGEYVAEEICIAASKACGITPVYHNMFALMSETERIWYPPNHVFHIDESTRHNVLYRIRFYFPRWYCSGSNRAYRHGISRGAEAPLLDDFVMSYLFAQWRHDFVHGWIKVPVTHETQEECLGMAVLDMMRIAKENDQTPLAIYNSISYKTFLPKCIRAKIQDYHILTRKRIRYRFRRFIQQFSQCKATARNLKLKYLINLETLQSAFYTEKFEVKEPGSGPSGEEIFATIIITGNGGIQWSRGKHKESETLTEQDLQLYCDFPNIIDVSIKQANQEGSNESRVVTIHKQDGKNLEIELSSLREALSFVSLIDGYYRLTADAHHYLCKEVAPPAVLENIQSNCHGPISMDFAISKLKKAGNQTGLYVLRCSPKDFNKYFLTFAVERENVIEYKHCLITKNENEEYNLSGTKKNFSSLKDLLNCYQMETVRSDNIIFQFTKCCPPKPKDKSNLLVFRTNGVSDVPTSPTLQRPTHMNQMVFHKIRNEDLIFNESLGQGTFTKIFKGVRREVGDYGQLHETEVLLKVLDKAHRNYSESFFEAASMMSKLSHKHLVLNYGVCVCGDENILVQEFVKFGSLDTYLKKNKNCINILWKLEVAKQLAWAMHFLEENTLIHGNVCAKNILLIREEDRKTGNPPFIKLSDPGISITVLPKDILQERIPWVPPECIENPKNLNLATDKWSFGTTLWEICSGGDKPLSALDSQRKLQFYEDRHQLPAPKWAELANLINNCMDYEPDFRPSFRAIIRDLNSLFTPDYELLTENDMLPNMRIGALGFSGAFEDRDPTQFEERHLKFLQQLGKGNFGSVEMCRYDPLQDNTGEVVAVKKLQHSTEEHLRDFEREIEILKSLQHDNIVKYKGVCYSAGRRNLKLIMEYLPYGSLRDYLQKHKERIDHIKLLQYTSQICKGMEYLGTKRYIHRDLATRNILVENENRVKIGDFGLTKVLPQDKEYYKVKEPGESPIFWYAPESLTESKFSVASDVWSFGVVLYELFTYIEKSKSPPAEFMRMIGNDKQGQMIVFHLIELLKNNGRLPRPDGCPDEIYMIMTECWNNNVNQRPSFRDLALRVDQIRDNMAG
# procedure_text: HTRF KinEASE cell-free kinase assay with recombinant human JAK2
recorded_endpoint: pIC50
API: returns pIC50 as number; meaning -log10 of concentration in mol/L.

Please report pIC50 for the following compound: "COc1ccccc1NC(=O)Cc1cn(O)c2ccccc12"
7.51
